- test.target: T1, erythropoietin receptor (UniProt P19235 25-508, limits assumed)
- T1 sequence (looked up): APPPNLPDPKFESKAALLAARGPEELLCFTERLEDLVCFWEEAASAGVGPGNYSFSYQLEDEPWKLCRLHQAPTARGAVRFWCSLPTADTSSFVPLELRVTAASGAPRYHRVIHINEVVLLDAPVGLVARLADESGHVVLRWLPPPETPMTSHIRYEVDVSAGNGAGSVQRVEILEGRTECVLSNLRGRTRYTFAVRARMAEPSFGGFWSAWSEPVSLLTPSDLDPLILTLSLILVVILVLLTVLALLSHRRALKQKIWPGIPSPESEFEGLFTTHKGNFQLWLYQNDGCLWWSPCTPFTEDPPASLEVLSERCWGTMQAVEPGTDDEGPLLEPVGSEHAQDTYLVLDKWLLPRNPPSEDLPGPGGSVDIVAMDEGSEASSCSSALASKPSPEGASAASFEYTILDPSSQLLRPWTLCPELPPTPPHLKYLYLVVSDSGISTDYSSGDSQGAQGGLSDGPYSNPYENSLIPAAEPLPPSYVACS
- assay.summary: cell-based or functional assay
*1 amine or outer side, *2 acyl side, *3 side chain or, on linkers, in order; H or OH if unused. Bridges are numbered along the chain shown (N, C = ends). Where no end group is shown, it is not given here. [ ]: non-standard residue; d: D form. Als = 5-aminolevulinic acid, O=C(CCC(=O)[*:2])CN[*:1]
assay.readout: EC50, proliferation assay with TF-1 cells by MTT (µM)

Illustrative cases are given below, each with its answer.
binder: GGTYSCHFGRLTWVCKPQGG (disulfide 6-15 (inferred)) [peptide SEQ. ID NO. 5 GGTYSCHFGRLTWVCKPQGG]
output.unit: µM
reported.value: 5.16
//
binder: GGTYSCHFGKLTWVCKPQGG (disulfide 6-15 (inferred)) [peptide SEQ. ID NO. 4 GGTYSCHFGKLTWVCKPQGG]
output.unit: µM
reported.value: 4.66
//
binder: GGTYSCHFGKLTWVCKKQGG (disulfide 6-15 (inferred)) [peptide SEQ. ID NO. 2 GGTYSCHFGKLTWVCKKQGG]
output.unit: µM
reported.value: 3.28
//
binder: GGTYSCHFAKLTWVCKKQGG (disulfide 6-15 (inferred)) [peptide GGTYSCHFAKLTWVCKKQGG]
output.unit: µM
reported.value: 5.04
//
binder: GGTYSCHF[Als]LTWVCKPQGG (disulfide 6-14 (inferred)) [peptide SEQ. ID NO. 7 GGTYSCHF-(Als)-LTWVCKPQGG]
output.unit: µM
reported.value: 5.26
//
binder: GGTYSCHF[Als]LTWVCKKQGG (disulfide 6-14 (inferred)) [peptide SEQ. ID NO. 8 GGTYSCHF-(Als)-LTWVCKKQGG]
output.unit: µM
reported.value: 5

I: GGTYSCHFGRLTWVCKKQGG (disulfide 6-15 (inferred)) [peptide SEQ. ID NO. 6 GGTYSCHFGRLTWVCKKQGG]
II: GGTYSCHFGPLTWVCKKQGG (disulfide 6-15 (inferred)) [peptide GGTYSCHFGPLTWVCKKQGG]
I would appreciate it if you could say which entry, I or II , has the lower EC50, proliferation assay with TF-1 cells by MTT value. Selection: enter the item's label.
II
(II: 2.52 µM, I: 4.97 µM)
